- MEASURED TARGET: Serotonin 3 (5-HT3) receptor (Rattus norvegicus, UniProt P35563+Q9JJ16)
- Sequence (P35563 whole entry): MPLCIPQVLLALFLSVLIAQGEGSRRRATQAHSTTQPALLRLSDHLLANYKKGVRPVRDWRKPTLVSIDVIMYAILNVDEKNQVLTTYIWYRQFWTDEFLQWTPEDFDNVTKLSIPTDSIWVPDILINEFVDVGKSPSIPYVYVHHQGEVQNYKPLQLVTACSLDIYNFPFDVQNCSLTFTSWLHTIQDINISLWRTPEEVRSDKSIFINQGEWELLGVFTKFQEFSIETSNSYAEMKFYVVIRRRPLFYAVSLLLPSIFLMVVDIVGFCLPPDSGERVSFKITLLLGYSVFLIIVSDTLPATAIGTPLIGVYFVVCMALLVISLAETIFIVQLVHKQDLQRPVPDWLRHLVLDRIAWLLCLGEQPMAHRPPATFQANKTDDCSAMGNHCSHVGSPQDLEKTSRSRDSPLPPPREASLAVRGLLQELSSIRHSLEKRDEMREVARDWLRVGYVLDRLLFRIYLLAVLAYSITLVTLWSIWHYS
- Sequence (Q9JJ16 whole entry): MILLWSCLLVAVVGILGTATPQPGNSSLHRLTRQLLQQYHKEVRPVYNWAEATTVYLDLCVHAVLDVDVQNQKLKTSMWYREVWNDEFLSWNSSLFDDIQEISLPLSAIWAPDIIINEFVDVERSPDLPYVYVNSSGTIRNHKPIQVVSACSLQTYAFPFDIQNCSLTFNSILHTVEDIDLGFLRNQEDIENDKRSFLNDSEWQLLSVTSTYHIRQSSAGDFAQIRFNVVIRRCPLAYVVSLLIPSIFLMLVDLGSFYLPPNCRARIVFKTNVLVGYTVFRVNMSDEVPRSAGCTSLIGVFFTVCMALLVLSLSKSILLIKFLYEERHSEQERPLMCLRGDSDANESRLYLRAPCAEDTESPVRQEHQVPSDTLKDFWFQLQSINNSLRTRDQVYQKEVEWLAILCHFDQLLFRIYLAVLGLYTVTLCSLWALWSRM
- PROTOCOL DESCRIPTION: Inhibition of [3H]GR-65630 binding to rat cortical membrane serotonin 5-hydroxytryptamine 3 receptor
Entries and their pKi
Value format note: pKi is -log10 of concentration (mol/L); just state the number.

Past entries and their recorded results:
COc1cc(N)c(Cl)cc1C(=O)NC1CCN2CCCC1C2 (centres undefined) [RENZAPRIDE]	8.28
CCN(CC)CCNC(=O)c1cc(Cl)c(N)cc1OC [METOCLOPRAMIDE]	6.68

From here, focus on the item given below.
QUERY: Requested read-out: pKi. Entry: CCOc1cc(N)c(Cl)cc1C(=O)NCC1CN(Cc2ccc(F)cc2)CCO1 (centres undefined) [MOSAPRIDE]
RESULT: 5.92
